# method summary: Nuclear factor erythroid 2-related factor 2/antioxidant responsive element (Nrf2/ARE) small molecule agonists: luciferase reporter gene qHTS assay in human keratinocytes (AID 1919969); further: nearly all actives have a fitted effect of over 35% in size
# details: KeratinoSens HaCaT ARE-luciferase, luminescence, 24 h; series mostly up to 92.4 µM
Records with an inconclusive call do not appear. Active and inactive are the calls of the source. The call rests on the fitted dose curve.
Outcomes: true (1) = active, false (0) = inactive

>>> classification("CCOc1cc(Oc2ccc(C(F)(F)F)cc2Cl)ccc1[N+](=O)[O-]")
"false (0)"
>>> classification("O=C(O)C(O)C(O)C(=O)O (stereo not drawn)")
"false (0)"
>>> classification("CCC[CH2][Sn]([CH2]CCC)([CH2]CCC)[CH2]CCC")
"true (1)"
>>> classification("Nc1ccccc1-c1ccccc1")
"false (0)"
>>> classification("C[C@]12CC[C@H](O)C[C@H]1CC[C@@H]1[C@@H]2C[C@@H](O)[C@]2(C)[C@@H](C3=CC(=O)OC3)CC[C@]12O")
"true (1)"
>>> classification("C=CCc1ccc(OC(=O)Cc2ccccc2)c(OC)c1")
"false (0)"
>>> classification("O=C(Oc1ccc(Br)cc1)N1CCN2CCC1CC2")
"false (0)"
>>> classification("Nc1ccc([N+](=O)[O-])cc1[N+](=O)[O-]")
"false (0)"
>>> classification("CC1COC(Cn2cncn2)(c2ccc(Oc3ccc(Cl)cc3)cc2Cl)O1 (stereo not drawn)")
"false (0)"
>>> classification("CC(C)NCC(O)c1ccc(N)c(C#N)c1 (stereo not drawn)")
"false (0)"
>>> classification("CCOC(=O)NC(C)(C)Cc1ccc(Cl)cc1")
"false (0)"
>>> classification("Clc1cc(Cl)c(-c2cc(Cl)c(Cl)cc2Cl)cc1Cl")
"false (0)"
>>> classification("O=c1[nH]c2ccccc2n1C1CCNCC1")
"false (0)"
>>> classification("COc1ccc(C(=O)c2c(C)n(CCN3CCOCC3)c3ccccc23)cc1")
"false (0)"
>>> classification("CC[C@H](C)[C@H]1O[C@]2(C=C[C@@H]1C)C[C@@H]1C[C@@H](C/C=C(\\C)[C@@H](O[C@H]3C[C@H](OC)[C@@H](O[C@H]4C[C@H](OC)[C@@H](O)[C@H](C)O4)[C@H](C)O3)[C@@H](C)/C=C/C=C3\\CO[C@@H]4[C@H](O)C(C)=C[C@@H](C(=O)O1)[C@]34O)O2")
"false (0)"
>>> classification("CC(C)[C@]12CC(=O)[C@H](C)[C@H]1C2")
"false (0)"
>>> classification("CC(C)OC(=O)C(O)(c1ccc(Cl)cc1)c1ccc(Cl)cc1")
"false (0)"
>>> classification("ClC(Cl)C(Cl)(Cl)Cl")
"false (0)"
>>> classification("C/C(=C\\c1ccccc1)[N+](=O)[O-]")
"true (1)"
>>> classification("O=S(=O)(C(Cl)(Cl)Cl)C(Cl)(Cl)Cl")
"true (1)"
>>> classification("CC[C@@H](CO)NC(=O)[C@@H]1C=C2c3cccc4c3c(cn4C)C[C@H]2N(C)C1")
"false (0)"
>>> classification("NS(=O)(=O)C(F)(F)C(F)(F)C(F)(F)C(F)(F)C(F)(F)C(F)(F)C(F)(F)C(F)(F)F")
"true (1)"
>>> classification("O=C(CCl)NCO")
"false (0)"
>>> classification("COC(=O)c1ccccc1S(=O)(=O)NC(=O)Nc1nc(C)cc(C)n1")
"false (0)"
>>> classification("CCOP(=S)(S)OCC")
"true (1)"
>>> classification("CCCC[N+](=O)[O-]")
"false (0)"
>>> classification("O=c1[nH]c2cc(Cl)ccc2n1C1CCNCC1")
"false (0)"
>>> classification("O=C(N[C@H](c1ccccc1)[C@@H]1CN2CCC1CC2)c1c(Cl)ccc(C(F)(F)F)c1Cl")
"false (0)"
>>> classification("O=C(O)CC(Cl)C(=O)O (stereo not drawn)")
"false (0)"
>>> classification("CC(Cc1ccccc1)NCCn1cnc2c1c(=O)n(C)c(=O)n2C (stereo not drawn)")
"false (0)"
>>> classification("CCCCCCCCBr")
"false (0)"
>>> classification("NC1CCC(CC2CCC(N)CC2)CC1 (stereo not drawn)")
"false (0)"
>>> classification("Cc1cccc(C)c1NC1=NCCCS1")
"false (0)"
>>> classification("O=C1C(=O)c2cccc3cccc1c23")
"true (1)"
>>> classification("CCN(CC)C(=O)[C@@H]1C=C2c3cccc4[nH]cc(c34)C[C@H]2N(C)C1")
"false (0)"
>>> classification("CCCCCCCC(=O)Cl")
"false (0)"
>>> classification("ClC(Br)Br")
"false (0)"
>>> classification("Cc1ccc(OP(=O)(Oc2ccccc2)Oc2ccccc2)cc1")
"false (0)"
>>> classification("COc1nn(C(=O)NS(=O)(=O)c2ccccc2OC(F)(F)F)c(=O)n1C")
"false (0)"
>>> classification("COc1cccc(C(=O)NN(C(=O)c2cc(C)cc(C)c2)C(C)(C)C)c1C")
"false (0)"
>>> classification("COc1cccc([C@@]2(O)CCCC[C@@H]2CN(C)C)c1")
"false (0)"
>>> classification("ClC1=C(Cl)[C@]2(Cl)[C@@H]3[C@@H](Cl)[C@H]4O[C@H]4[C@@H]3C1(Cl)C2(Cl)Cl")
"false (0)"
>>> classification("CCCOCC(=Nc1ccc(Cl)cc1C(F)(F)F)n1ccnc1")
"true (1)"
>>> classification("CC(c1ccccc1)(c1ccc(O)cc1)c1ccc(O)cc1")
"false (0)"
>>> classification("O=C(c1ccccc1)C(Cl)Cl")
"true (1)"
>>> classification("C=CC(=O)OCCCCOC(=O)C=C")
"true (1)"
>>> classification("Nc1ccc(Cc2ccc(N)c(Cl)c2)cc1Cl")
"false (0)"
>>> classification("C=CC(=O)[O][Sn]([CH2]CCC)([CH2]CCC)[CH2]CCC")
"true (1)"

###

# method summary: p53 small molecule agonists, cell-based qHTS assay: qHTS cell viability counter screen (AID 1963581); further: nearly all actives have a fitted effect of over 45% in size; further: potency means the concentration at half of the fitted maximal effect
# details: p53RE-bla HCT-116 viability, ATP luminescence, 16 h; series mostly up to 66 µM
Inconclusive results are not listed. Activity calls are given as the source filed them. The call rests on the fitted dose curve.
measure: Potency

>>> value_observed("Cc1ccc([N+](=O)[O-])[c]2c1[O][Hg]2")
"8.9 µM (active)"
>>> value_observed("N[C@@H](Cc1ccc(Oc2cc(I)c(O)c(I)c2)c(I)c1)C(=O)O")
"inactive"
>>> value_observed("CC(=O)NC1CCSC1=O (configuration not stated)")
"inactive"
>>> value_observed("CC(C)[N+](=O)[O-]")
"inactive"
>>> value_observed("CCCCN(CCCC)C(=S)[S-].CCCCN(CCCC)C(=S)[S-].[Zn+2]")
"25.7 µM (active)"
>>> value_observed("N#CCCl")
"inactive"
>>> value_observed("Oc1c(Cl)cccc1Cl")
"inactive"

###

# method summary: Nuclear factor erythroid 2-related factor 2/antioxidant responsive element (Nrf2/ARE) small molecule agonists: luciferase reporter gene qHTS assay in human keratinocytes (AID 1919969); further: nearly all actives have a fitted effect of over 35% in size
# details: KeratinoSens HaCaT ARE-luciferase, luminescence, 24 h; series mostly up to 92.4 µM
Records with an inconclusive call do not appear. Active and inactive are the calls of the source. Calls follow the shape of the full dose curve.
Outcomes: active, inactive

>>> classification("N#CC(C#N)=C(C#N)C#N")
"inactive"
>>> classification("C[N+](C)(C)CC1CO1 (centres undefined)")
"inactive"
>>> classification("Cl/C=C\\Cl")
"inactive"
>>> classification("Cc1cc(C)c(C(=O)P(=O)(c2ccccc2)c2ccccc2)c(C)c1")
"inactive"
>>> classification("C[N+]1(C)[C@@H]2CC[C@H]1CC(OC(=O)C(CO)c1ccccc1)C2 (some centres undefined)")
"inactive"
>>> classification("CC(=O)[O][Pb]([c]1ccccc1)([c]1ccccc1)[c]1ccccc1")
"active"
>>> classification("CCOc1cc(OP(=S)(OC)OC)nc(CC)n1")
"inactive"
>>> classification("COc1cc(OC)nc(NC(=O)NS(=O)(=O)c2ncccc2OCC(F)(F)F)n1")
"inactive"
>>> classification("CCCCc1ccc(O)cc1")
"inactive"
>>> classification("CCN(CC)C(C)C(=O)c1ccccc1 (centres undefined)")
"inactive"
>>> classification("O=CC=O")
"inactive"
>>> classification("COP(=S)(OC)Oc1c(Cl)cc(C)cc1Cl")
"inactive"
>>> classification("CON(C)C(=O)Nc1ccc(Br)cc1")
"inactive"
>>> classification("CCC1(c2ccccc2)C(=O)NC(=O)NC1=O")
"inactive"
>>> classification("O=C1NCN(c2ccccc2)C12CCN(CC1COc3ccccc3O1)CC2 (centres undefined)")
"inactive"
>>> classification("Nc1ccc(N=Nc2ccccc2)cc1")
"active"
>>> classification("O=C(O)c1cccc(Cl)c1")
"inactive"
>>> classification("CC(C)NCC(O)c1ccccc1Cl (centres undefined)")
"inactive"
>>> classification("N#CC(CCc1ccc(Cl)cc1)(Cn1cncn1)c1ccccc1 (centres undefined)")
"inactive"
>>> classification("CCCCOC(C)=O")
"inactive"
>>> classification("Cc1cccc(OP(=O)(Oc2cccc(C)c2)Oc2cccc(C)c2)c1")
"inactive"
>>> classification("CC#Cc1cc(C)nc(Nc2ccccc2)n1")
"active"
>>> classification("CCCN(CCC)C(=O)Cc1c(-c2ccc(Cl)cc2)nc2ccc(Cl)cn12")
"inactive"
>>> classification("O=C1c2ccccc2C(=O)C1C(=O)C(c1ccccc1)c1ccc(Cl)cc1 (centres undefined)")
"inactive"
>>> classification("CCOP(=S)(OCC)SCSc1ccc(Cl)cc1")
"inactive"
>>> classification("CN(C)c1ccc(N=Nc2ccccc2)cc1")
"active"
>>> classification("OCCBr")
"inactive"
>>> classification("O=C(CBr)c1ccccc1")
"active"
>>> classification("CC(C)=CC1C(C(=O)OC(C#N)c2cccc(Oc3ccccc3)c2)C1(C)C (centres undefined)")
"inactive"
